Source: paper PMC6917776

ASSAY SUMMARY: CelltiterGlo viability cell assay
Assay type: cell-based
CONDITION NOTES: human, SKMM2 multiple myeloma cells, SKMM2, 3 day, 0.3 uM; read-out: viability Replicate 3

# SMI, viability at 3 day, 0.3 µM / %
records = [
    ("COc1cc(OC)cc(-c2noc(N3CCN(C)C4(CCN(c5ccnc(C)c5)CC4)C3)n2)c1", 103),
]

----------
ASSAY SUMMARY: CelltiterGlo viability cell assay
Format: cell-based
CONDITION NOTES: human, HCC1143 breast cancer cells, HCC1143, 3 day, 9.5 uM; read-out: viability Replicate 2

# SMI, viability at 3 day, 9.5 µM (%)
measured = [
    ("COc1cc(OC)cc(-c2noc(N3CCN(C)C4(CCN(c5ccnc(C)c5)CC4)C3)n2)c1", 69.4),
]

----------
ASSAY SUMMARY: CelltiterGlo viability cell assay
Type: cell-based
CONDITION NOTES: human, HCC1143 breast cancer cells, HCC1143, 3 day, 9.5 uM; read-out: viability Average

# SMI, viability at 3 day, 9.5 µM / %
records = [
    ("COc1cc(OC)cc(-c2noc(N3CCN(C)C4(CCN(c5ccnc(C)c5)CC4)C3)n2)c1", 71.7),
]

----------
ASSAY SUMMARY: CelltiterGlo viability cell assay
Assay type: cell-based
CONDITION NOTES: human, MDA-MB-436 breast cancer cells, MDA MB436, 3 day, 1 uM; read-out: viability Replicate 1

# SMI, viability at 3 day, 1 µM (%)
data = [
    ("COc1cc(OC)cc(-c2noc(N3CCN(C)C4(CCN(c5ccnc(C)c5)CC4)C3)n2)c1", 114),
]

----------
ASSAY SUMMARY: CelltiterGlo viability cell assay
Format: cell-based
CONDITION NOTES: human, CAL851 breast cancer cells, CAL851, 6 day, 0.3 uM; read-out: viability Average
Description: Supplementary Figure 13. […] Viability of (a) Multiple Myeloma lines and (b) Breast Cancer cell lines following 3 or 6 days treatment with […] manufacturer’s instructions as described in the Supplementary methods. Data are normalized to DMSO control. N=3 biological replicates, +/- SEM. Source data are provided as a Source Data […] CelltiterGlo viability cell assay […]
ATTRIBUTE MEASURED: viability at 6 day, 0.3 µM (%)

# SMI, REPORTED
data = [
    ("COc1cc(OC)cc(-c2noc(N3CCN(C)C4(CCN(c5ccnc(C)c5)CC4)C3)n2)c1", 118),
]

----------
ASSAY SUMMARY: CelltiterGlo viability cell assay
Format: cell-based
CONDITION NOTES: human, HCC1143 breast cancer cells, HCC1143, 3 day, 0.3 uM; read-out: viability Replicate 1
ATTRIBUTE MEASURED: viability at 3 day, 0.3 µM (%)

# SMI, REPORTED
data = [
    ("COc1cc(OC)cc(-c2noc(N3CCN(C)C4(CCN(c5ccnc(C)c5)CC4)C3)n2)c1", 99.7),
]

----------
ASSAY SUMMARY: CelltiterGlo viability cell assay
Assay type: cell-based
CONDITION NOTES: human, CAL851 cells, CAL851, 3 day, 0.1 uM; read-out: viability Replicate 2
ATTRIBUTE MEASURED: viability at 3 day, 0.1 µM

# SMI, REPORTED
rows = [
    ("COc1cc(OC)cc(-c2noc(N3CCN(C)C4(CCN(c5ccnc(C)c5)CC4)C3)n2)c1", "91.8%"),
]

----------
ASSAY SUMMARY: CelltiterGlo viability cell assay
Assay type: cell-based
CONDITION NOTES: human, SKMM2 multiple myeloma cells, SKMM2, 6 day, 3 uM; read-out: viability Replicate 2

# SMI, viability at 6 day, 3 µM / %
rows = [
    ("COc1cc(OC)cc(-c2noc(N3CCN(C)C4(CCN(c5ccnc(C)c5)CC4)C3)n2)c1", 105),
]

----------
ASSAY SUMMARY: CelltiterGlo viability cell assay
Assay type: cell-based
CONDITION NOTES: human, MDA-MB-436 cells, MDA MB436, 3 day, 0.1 uM; read-out: viability Average
ATTRIBUTE MEASURED: viability at 3 day, 0.1 µM (%)

# COMPOUND, REPORTED
records = [
    ("COc1cc(OC)cc(-c2noc(N3CCN(C)C4(CCN(c5ccnc(C)c5)CC4)C3)n2)c1 [MRK-740]", 105),
]

----------
ASSAY SUMMARY: CelltiterGlo viability cell assay
Format: cell-based
CONDITION NOTES: human, HCC1806 breast cancer cells, HCC1806, 3 day, 9.5 uM; read-out: viability Replicate 1
ATTRIBUTE MEASURED: viability at 3 day, 9.5 µM (%)

# SMI, READOUT UNITS, REPORTED
rows = [
    ("COc1cc(OC)cc(-c2noc(N3CCN(C)C4(CCN(c5ccnc(C)c5)CC4)C3)n2)c1", "%", 40.7),
]

----------
ASSAY SUMMARY: CelltiterGlo viability cell assay
Format: cell-based
CONDITION NOTES: human, CAL851 breast cancer cells, CAL851, 3 day, 30 uM; read-out: viability Replicate 3
ATTRIBUTE MEASURED: viability at 3 day, 30 µM (%)

# MOLECULE, ATTRIBUTE MEASURED, REPORTED
measured = [
    ("COc1cc(OC)cc(-c2noc(N3CCN(C)C4(CCN(c5ccnc(C)c5)CC4)C3)n2)c1 [MRK-740]", "viability at 3 day, 30 µM", 20.7),
]

----------
ASSAY SUMMARY: CelltiterGlo viability cell assay
Assay type: cell-based
CONDITION NOTES: human, SKMM2 cells, SKMM2, 3 day, 0.01 uM; read-out: viability Replicate 3

# SMI, viability at 3 day, 0.01 µM (%)
records = [
    ("COc1cc(OC)cc(-c2noc(N3CCN(C)C4(CCN(c5ccnc(C)c5)CC4)C3)n2)c1", 102),
]

----------
ASSAY SUMMARY: CelltiterGlo viability cell assay
Format: cell-based
CONDITION NOTES: human, SKMM2 multiple myeloma cells, SKMM2, 6 day, 0.3 uM; read-out: viability Average

# SMI, READOUT UNITS, viability at 6 day, 0.3 µM
records = [
    ("COc1cc(OC)cc(-c2noc(N3CCN(C)C4(CCN(c5ccnc(C)c5)CC4)C3)n2)c1", "%", 98.1),
]

----------
ASSAY SUMMARY: CelltiterGlo viability cell assay
Format: cell-based
CONDITION NOTES: human, RPMI-8226 cells (multiple myeloma line), 8226, 6 day, 0.03 uM; read-out: viability Replicate 2
ATTRIBUTE MEASURED: viability at 6 day, 0.03 µM (%)

# SMI, ATTRIBUTE MEASURED, REPORTED
measured = [
    ("COc1cc(OC)cc(-c2noc(N3CCN(C)C4(CCN(c5ccnc(C)c5)CC4)C3)n2)c1", "viability at 6 day, 0.03 µM", 101),
]

----------
ASSAY SUMMARY: CelltiterGlo viability cell assay
Format: cell-based
CONDITION NOTES: human, HCC1806 breast cancer cells, HCC1806, 3 day, 0.01 uM; read-out: viability Average

# SMI, viability at 3 day, 0.01 µM, %
measured = [
    ("COc1cc(OC)cc(-c2noc(N3CCN(C)C4(CCN(c5ccnc(C)c5)CC4)C3)n2)c1", 107),
]

----------
ASSAY SUMMARY: CelltiterGlo viability cell assay
Assay type: cell-based
CONDITION NOTES: human, CAL851 breast cancer cells, CAL851, 6 day, 30 uM; read-out: viability Replicate 3
ATTRIBUTE MEASURED: viability at 6 day, 30 µM (%)

# SMI, REPORTED
data = [
    ("COc1cc(OC)cc(-c2noc(N3CCN(C)C4(CCN(c5ccnc(C)c5)CC4)C3)n2)c1", 10),
]

----------
ASSAY SUMMARY: CelltiterGlo viability cell assay
Type: cell-based
CONDITION NOTES: human, SKMM2 multiple myeloma cells, SKMM2, 6 day, 1 uM; read-out: viability Replicate 2

# SMI, viability at 6 day, 1 µM / %
measured = [
    ("COc1cc(OC)cc(-c2noc(N3CCN(C)C4(CCN(c5ccnc(C)c5)CC4)C3)n2)c1", 105),
]

----------
ASSAY SUMMARY: CelltiterGlo viability cell assay
Assay type: cell-based
CONDITION NOTES: human, MDA-MB-436 breast cancer cells, MDA MB436, 3 day, 0.03 uM; read-out: viability Replicate 2
ATTRIBUTE MEASURED: viability at 3 day, 0.03 µM

# SMI, REPORTED
measured = [
    ("COc1cc(OC)cc(-c2noc(N3CCN(C)C4(CCN(c5ccnc(C)c5)CC4)C3)n2)c1", "99.1%"),
]

----------
ASSAY SUMMARY: CelltiterGlo viability cell assay
Format: cell-based
CONDITION NOTES: human, HCC1806 breast cancer cells, HCC1806, 6 day, 30 uM; read-out: viability Replicate 1
Text: Supplementary Figure 13. […] Viability of (a) Multiple Myeloma lines and (b) Breast Cancer cell lines following 3 or 6 days treatment with […] manufacturer’s instructions as described in the Supplementary methods. Data are normalized to DMSO control. N=3 biological replicates, +/- SEM. Source data are provided as a Source Data […] CelltiterGlo viability cell assay […]

# SMI, viability at 6 day, 30 µM [%]
rows = [
    ("COc1cc(OC)cc(-c2noc(N3CCN(C)C4(CCN(c5ccnc(C)c5)CC4)C3)n2)c1", 5.1),
]
